Source of measurements: patent US20220073643A1

- MEASUREMENT TARGET: T1, human Claudin18.2 (human)
- T1 construct: also called CLDN18.2
- METHOD SUMMARY: cell ELISA, Claudin18.2-expressing HEK293T cells
PARAMETER: EC50 (nM)
# output: bare number, implied unit nM

EC50 for 407E11H8 (antibody, V domains shown, mouse hybridoma mAb) VH: DVQLVESGGGLVQPGGSRKLSCAASGFTFSDFGMHWIRQTPEKGLEWVAYISSGSRPIYYADTVKGRFTISRDNPKNTLFLQMTSLRSEDTAMYFCVRFYFGNSFDHWGQGTLVTVSA VL: DIVMTQSPSFLTVTAGEKVTMTCRSSQNLLNSGNLKNYLTWYQQKPGQPPKLLISWASTRESGVPDRFTGSGSGTDFTLTISSVQPEDLALYYCQNAYSFPLTFGAGTKLELK ?
1.24

Returns the measured EC50 for the input binder. Input: 407H12E6 (antibody, V domains shown, mouse hybridoma mAb) VH: DVQLVESGGGLVQPGGSRKLSCAASGFTVSSFGMHWVRQAPEKGLEWVAYISSGSSPIYYADTVKGRFTISRDNPKNTLFLQMTSLRSEDTAIYFCARFYYGNSFDHWGQGTLVTVSA VL: DIVMTQSPSSLTVTTGEKVTMSCKSSQSLLNSGNQKNYLTWYQQKPGQSPKLLIYWASTRESGVPDRFTGSGSGTDFTLTISSVQTEDLAVYFCQNNYFFPLTFGAGTKLELK
2.39

What measured EC50 goes with 213B10A4 (antibody, V domains shown, mouse hybridoma mAb) VH: QAYVQQSGAELVRSGASVKMSCRASGYTFTSYNMHWVKQTPGQGLEWIGYIYPGNGGTYYNQKFKGKATLTADTSSSTAYMQISSLTSEDSAVYFCATGRGFAYWGQGTLVTVSA VL: DIVMTQSPSSLTVTAGEKVTMSCKSSQSLLNSGNQKNYLTWYQQKPGQPPKLLIYRASTRESGVPDRFTGSGFGTDFTLTISSVQAEDLAVYYCQNDYSYPLTFGAGTKLELK ?
2.33

Given the binder 232F1E4 (antibody, V domains shown, mouse hybridoma mAb) VH: QVQLKESGPGLVAPSQSLSITCTVSGFALTTYGVSWVRQPPGKGLEWLGVIWGDGSTHYHSALISRLSIRKDNSKSQVFLKLNSLQTDDTATYYCAKPGRGNAMDYWGQGTSVTVSS VL: DIVMSQSPSSLTVTAGEKVTMSCKSSQSLLNSGNQKNYLTWYQQKPGQSPKLLIYWASTRESGVPDRFTGSGSGTDFTLTISSMQAEDLAVYYCQNDYIYPLTFGAGTMLELK , what is its reported EC50?
0.966
